Provenance of the data: the supplement of paper PMC10307832

Please go through the items and note down their relative viability.
- Test system: NCI-H441
- Protocol Description: relative viability (nuclei count vs DMSO), 5 days (fraction); higher = more cells survive
- Setup Conditions: first compound 0.8 µM

{"columns": ["Compound", "Assay Target", "relative viability"],
 "data": [
  ["Cc1cnc(-c2cnc(NCCNc3ccc(C#N)cn3)nc2-c2ccc(Cl)cc2Cl)[nH]1 + CC(=O)Nc1cccc(-n2c(=O)n(C3CC3)c(=O)c3c(Nc4ccc(I)cc4F)n(C)c(=O)c(C)c32)c1 [Trametinib] (partner 0.02 µM)", "NCI-H441", 0.443]
]}

Ask: Name the recorded relative viability of the item O=c1[nH]c2ccccc2n1C1CCN(CCCC(c2ccc(F)cc2)c2ccc(F)cc2)CC1 [Pimozide] + C[C@@H](Oc1cc(-c2cnn(C3CCNCC3)c2)cnc1N)c1c(Cl)ccc(F)c1Cl [Crizotinib] (partner 1 µM) in your answer.
Result: 0.652

* * *

- Tested on: SK-MES-1
- Protocol Description: relative viability (nuclei count vs DMSO), 5 days (fraction); higher = more cells survive
- Setup Conditions: first compound 50 µM
Please go through the items and note down their relative viability.
Answers are plain numbers.

Below, 4 compounds whose answers are already recorded.
{"columns": ["Compound", "relative viability"],
 "data": [
  ["O=C(O)CCCCC(CCSCc1ccccc1)SCc1ccccc1 (stereo unspecified) [CPI-613] + Cc1nc(Nc2ncc(C(=O)Nc3c(C)cccc3Cl)s2)cc(N2CCN(CCO)CC2)n1 [Dasatinib] (partner 0.075 µM)", 0.432],
  ["O=C(O)CCCCC(CCSCc1ccccc1)SCc1ccccc1 (stereo unspecified) [CPI-613] + CC(=O)Nc1cccc(-n2c(=O)n(C3CC3)c(=O)c3c(Nc4ccc(I)cc4F)n(C)c(=O)c(C)c32)c1 [Trametinib] (partner 0.02 µM)", 0.523],
  ["O=C(O)CCCCC(CCSCc1ccccc1)SCc1ccccc1 (stereo unspecified) [CPI-613] + CS(=O)(=O)CCNCc1ccc(-c2ccc3ncnc(Nc4ccc(OCc5cccc(F)c5)c(Cl)c4)c3c2)o1 [Lapatinib] (partner 2 µM)", 0.428],
  ["O=C(O)CCCCC(CCSCc1ccccc1)SCc1ccccc1 (stereo unspecified) [CPI-613] + Cc1nc(NC(=O)N2CCC[C@H]2C(N)=O)sc1-c1ccnc(C(C)(C)C(F)(F)F)c1 [Alpelisib] (partner 2 µM)", 0.784]
]}

Please state, for each entry, its recorded relative viability.
1. O=C(O)CCCCC(CCSCc1ccccc1)SCc1ccccc1 (stereo unspecified) [CPI-613] + Cc1cc(Nc2cc(N3CCN(C)CC3)nc(Sc3ccc(NC(=O)C4CC4)cc3)n2)n[nH]1 [Tozasertib] (partner 0.1 µM)
2. O=C(O)CCCCC(CCSCc1ccccc1)SCc1ccccc1 (stereo unspecified) [CPI-613] + CC1(C)CCC(c2ccc(Cl)cc2)=C(CN2CCN(c3ccc(C(=O)NS(=O)(=O)c4ccc(N[C@H](CCN5CCOCC5)CSc5ccccc5)c(S(=O)(=O)C(F)(F)F)c4)cc3)CC2)C1 [Navitoclax] (partner 0.5 µM)

Result:
0.753
1.1

* * *

- System: COR-L 105
- Protocol Description: relative viability (nuclei count vs DMSO), 5 days (fraction); higher = more cells survive
- Setup Conditions: first compound 0.4 µM
Please go through the items and note down their relative viability.
Give bare numbers.

Below, 3 compounds whose answers are already recorded.
{"columns": ["Compound", "Metric", "Measured Number"],
 "data": [
  ["Cc1sc2c(c1C)C(c1ccc(Cl)cc1)=N[C@@H](CC(=O)OC(C)(C)C)c1nnc(C)n1-2 [JQ1] + CC1(C)CCC(c2ccc(Cl)cc2)=C(CN2CCN(c3ccc(C(=O)NS(=O)(=O)c4ccc(N[C@H](CCN5CCOCC5)CSc5ccccc5)c(S(=O)(=O)C(F)(F)F)c4)cc3)CC2)C1 [Navitoclax] (partner 0.5 µM)", "relative viability", 0.462],
  ["Cc1sc2c(c1C)C(c1ccc(Cl)cc1)=N[C@@H](CC(=O)OC(C)(C)C)c1nnc(C)n1-2 [JQ1] + CS(=O)(=O)N1CCN(Cc2cc3nc(-c4cccc5[nH]ncc45)nc(N4CCOCC4)c3s2)CC1 [Pictilisib] (partner 1 µM)", "relative viability", 0.312],
  ["Cc1sc2c(c1C)C(c1ccc(Cl)cc1)=N[C@@H](CC(=O)OC(C)(C)C)c1nnc(C)n1-2 [JQ1] + N=C(N)NC(=N)NCCc1ccccc1 [Phenformin] (partner 250 µM)", "relative viability", 0.217]
]}

Now look at this entry.
Ask: Enter measured relative viability, system COR-L 105, for the compound shown: Cc1sc2c(c1C)C(c1ccc(Cl)cc1)=N[C@@H](CC(=O)OC(C)(C)C)c1nnc(C)n1-2 [JQ1] + C[C@@H](Oc1cc(-c2cnn(C3CCNCC3)c2)cnc1N)c1c(Cl)ccc(F)c1Cl [Crizotinib] (partner 1 µM)
Result: 0.403
